# System tested: Fructose-bisphosphate aldolase (Mycobacterium tuberculosis (strain ATCC 25618 / H37Rv))
# Experimental protocol: Mtb FBA enzyme inhibitors, primary screen, biochemical, fluorescence, strain H37Rv (AID 588726);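 note: 0% = vehicle and 100% = reference inhibitor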
# Particulars: purified M. tuberculosis FBA, fluorescence read-out, at 1 µM, stronger effect = higher value
The campaign covered roughly 360,000 compounds. About 8,200 (2.3%) were called active. Only a selection was taken, and actives are over-represented in it overall.
Items are presented alongside their recorded inhibition.
Write the answer as a number in %, unit excluded.

What inhibition appears in the records for this compound with Fructose-bisphosphate aldolase (Mycobacterium tuberculosis (strain ATCC 25618 / H37Rv))? `COc1ccc2c(c1)CC[C@@H]1[C@@H]2CC[C@]2(C)C(=O)CC[C@@H]12`
0.88

What inhibition appears in the records for this compound with Fructose-bisphosphate aldolase (Mycobacterium tuberculosis (strain ATCC 25618 / H37Rv))? Cc1ccc(C2Nc3ccccc3C(=O)N2CCN2CCNC2=O)cc1 (stereo not given)
95.6

What inhibition appears in the records for this compound with Fructose-bisphosphate aldolase (Mycobacterium tuberculosis (strain ATCC 25618 / H37Rv))? `CCc1nn(CC(=O)N2CCN(CC)CC2)c(=O)c2cccn12`
2.42

What inhibition appears in the records for this compound with Fructose-bisphosphate aldolase (Mycobacterium tuberculosis (strain ATCC 25618 / H37Rv))? `CC(C)(C)Nc1c(-c2cccs2)nc2ccccn12`
76.1

What inhibition appears in the records for this compound with Fructose-bisphosphate aldolase (Mycobacterium tuberculosis (strain ATCC 25618 / H37Rv))? `Cc1cc(C)cc(OCC(=O)NNC(=O)c2cc3ccccc3oc2=O)c1`
1.86

What inhibition appears in the records for this compound with Fructose-bisphosphate aldolase (Mycobacterium tuberculosis (strain ATCC 25618 / H37Rv))? `Cc1nc2ccccn2c(=O)c1NC(=O)c1cccs1`
3.76

What inhibition appears in the records for this compound with Fructose-bisphosphate aldolase (Mycobacterium tuberculosis (strain ATCC 25618 / H37Rv))? O=C1c2ccccc2NC(c2ccccn2)N1NS(=O)(=O)c1ccccc1 (stereo not given)
11.3

What inhibition appears in the records for this compound with Fructose-bisphosphate aldolase (Mycobacterium tuberculosis (strain ATCC 25618 / H37Rv))? `COc1ccc2oc(N)nc2c1`
0.46

What inhibition appears in the records for this compound with Fructose-bisphosphate aldolase (Mycobacterium tuberculosis (strain ATCC 25618 / H37Rv))? O=C(NCc1ccccc1)C1CNCC(C(=O)NCc2ccccc2)C1 (stereo not given)
-0.79

What inhibition appears in the records for this compound with Fructose-bisphosphate aldolase (Mycobacterium tuberculosis (strain ATCC 25618 / H37Rv))? `Cc1ccc(S(=O)(=O)N2CCN(C(=O)Cc3sc(C)nc3-c3ccc(F)cc3)CC2)c(C)c1`
-0.33

Reference source: PubChem BioAssay AID588726
